Origin of measurements: patent US20160002311A1

target: glucagon receptor (UniProt P47871 26-477, limits assumed); assay: cell-based or functional assay
Sequence (P47871 26-477 limits assumed): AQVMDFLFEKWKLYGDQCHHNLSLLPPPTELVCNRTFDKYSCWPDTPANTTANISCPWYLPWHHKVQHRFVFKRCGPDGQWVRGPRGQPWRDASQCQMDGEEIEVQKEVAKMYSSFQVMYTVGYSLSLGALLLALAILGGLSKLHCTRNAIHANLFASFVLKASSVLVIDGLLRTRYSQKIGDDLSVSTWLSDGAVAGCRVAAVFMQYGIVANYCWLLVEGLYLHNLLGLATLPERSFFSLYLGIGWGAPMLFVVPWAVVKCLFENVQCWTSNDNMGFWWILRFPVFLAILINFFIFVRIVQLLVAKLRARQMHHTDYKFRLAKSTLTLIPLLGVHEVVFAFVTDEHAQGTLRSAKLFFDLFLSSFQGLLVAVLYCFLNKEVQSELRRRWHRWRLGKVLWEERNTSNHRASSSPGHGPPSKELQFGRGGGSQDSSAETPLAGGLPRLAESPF
Numbered stars: 1 amine (or outer) side, 2 acyl side, 3 side chain; on linkers, the order of the positions; unused ones are H or OH. Square brackets hold non-standard residues; d marks the D form. Side chains are listed from the residue outwards. Ends that are not written are not given here. * marks the point of attachment. C18 diacid = O=C(O)CCCCCCCCCCCCCCCCC(=O)*; γGlu = O=C(O)[C@H](CCC(=O)[*:2])N[*:1]; Orn = NCCC[C@H](N)C(=O)O; AEEA = NCCOCCOCC(=O)O

- binder: "HSQGTFTSDYSKYLDSKKAQEFV[Orn]([AEEA-AEEA-γGlu-C18 diacid])WLLST"
  Assay (I) Glucagon [EC50] [nM]: 0.036
- binder: "HSQGTFTSDYSKYLDSKKAQEFVK([AEEA-AEEA-γGlu-C18 diacid])WLLDT"
  Assay (I) Glucagon [EC50] [nM]: 0.051
- binder: "HSQGTFTSDYSKYLDSKKAQEFVQWLLNT [[K^17,K^18, E^21, L^27] Glucagon]"
  Assay (I) Glucagon [EC50] [nM]: 0.003
- binder: "HSQGTFTSDYSKYLDSKKAQEFVQWLLNK([AEEA-AEEA-γGlu-C18 diacid])"
  Assay (I) Glucagon [EC50] [nM]: 0.053
